# subjectOfTest: T1, human collagen type I, acid soluble, extracted from placenta (Sigma C7774) (human, UniProt P02452 162-1218; P08123 80-1119)
# T1 construct: tissue extract, gelled and dried in wells; also called dried human collagen; h-Collagen
# test: dried collagen assay; further: test concentration or dose not given here
Bridge positions count the residues as written; N and C are the ends. Square brackets hold non-standard residues; d marks the D form. Ends that are not written are not given here.
endpointName: % bound (%)

A = SWYCDWDDRKGWMCGSD (disulfide 4-14 (inferred), cyclic, disulfide) [SEQ ID NO 86]
B = DWTCS[dR]DEYTWHCNYE (disulfide 4-13 (inferred), cyclic, disulfide) [SEQ ID NO 181]
Problem: Which of the two items, A and B , has the greater recorded % bound? Give the label under which the chosen entry appears.
Solution: B

P = GWVCGGDHTTWECHLQ (disulfide 4-13 (inferred), cyclic, disulfide) [SEQ ID NO 31]
Q = GQWTCSGDEYTWSCNYE (disulfide 5-14 (inferred), cyclic, disulfide) [SEQ ID NO 127]
R = GWVCMMRETDWNCSI (disulfide 4-13 (inferred), cyclic, disulfide) [SEQ ID NO 58]
S = TWNCYGVTEWHCYMI (disulfide 4-12 (inferred), cyclic, disulfide) [SEQ ID NO 9]
Problem: // ascending sort on recorded % bound Lab note: final answer is the ordered label list.
Solution: S, R, P, Q
(S: 7%, R: 10%, P: 15%, Q: 80%)
